Reference source: PubChem BioAssay (NCI)

Test system: NCI/ADR-RES ovarian
ASSAY_REMARKS: NCI tumour cell line growth inhibition, 48 h
Recorded TGI, one value per entry.

Before answering, review these 2 worked examples.
CN1CCN(Cc2cc3c(nn2)-c2ccccc2C3=O)CC1 | > 100 µM
O=c1onc2n1-c1cc(Cl)ccc1C(=S)N1CSCC21 (stereo not drawn) | > 100 µM

Note: attention shifts to another entry.
Which TGI value belongs to COc1cc(C=O)ccc1O ?
> 100 µM

----------
Recorded TGI, one value per entry.
Tested on: MDA-MB-231 breast
ASSAY_REMARKS: NCI tumour cell line growth inhibition, 48 h

COc1ccc(Cl)cc1NC(=O)c1ccc(NC2=C(Cl)C(=O)N(Cc3ccccc3)C2=O)cc1 | > 100 µM
Cn1ncc2c(NCc3ccccc3)ncnc21 | > 100 µM

Which TGI value belongs to COc1cc(C=O)ccc1O ?
> 100 µM

----------
Tested on: SNB-19 CNS
ASSAY_REMARKS: NCI tumour cell line growth inhibition, 48 h
MEASUREMENT_NAME: TGI

O=c1[nH]c(O)c(C=Nc2ccc(-c3nc4ccccc4o3)cc2)c(=O)[nH]1 | > 100 µM

Which TGI value belongs to Cn1c2ccccc2c2c(=S)c3ccccc3ccc21 ?
> 100 µM

Queued: O=C(O)c1ccc(CNCc2ccccc2)cc1
> 100 µM

----------
Recorded TGI, one value per entry.
System: KM12 colon
ASSAY_REMARKS: NCI tumour cell line growth inhibition, 48 h

Cc1nc2ccccc2c(-n2cccn2)c1CCn1cccn1 | > 100 µM
CCOC(=O)C(Br)=C1OC(=O)c2ccccc2-c2ccccc21 (mixture of isomers) | 34.9 µM
CN(C)CCN1CCC(Cc2ccccc2)CC1 | > 80 µM
COc1c2occc2c(N)c2ccc(=O)oc12 | > 100 µM
CCN(CCNS(C)(=O)=O)c1ccc(N)c(C)c1 | 26.9 µM
CCOC(=O)Cc1csc(Nc2ccccc2[N+](=O)[O-])n1 | > 100 µM
Cc1cc(C(=O)CSC(=S)SC(C)(C)C)ccc1Cl | 53.3 µM
Nc1nc(Cl)nc2c1ncn2C1CC(O)C(CO)O1 (stereo unspecified) | > 100 µM
Cc1nc2sccn2c1-c1nc2sccn2c1/C=C1/C(=O)Nc2ccccc21 | 14.6 µM
CC(=O)N/C(=C\c1ccccc1/C=C(\NC(C)=O)c1nc2cc(C)c(C)cc2[nH]1)c1nc2cc(C)c(C)cc2[nH]1 | > 100 µM

Note: attention shifts to another entry.
Which TGI value belongs to N#CC(c1ccccc1)N(CCOCCOCCN(C(=O)c1ccccc1)C(C#N)c1ccccc1)C(=O)c1ccccc1 (stereo unspecified) ?
> 100 µM

----------
Recorded TGI, one value per entry.
System: 786-0 renal
ASSAY_REMARKS: NCI tumour cell line growth inhibition, 48 h

Before answering, review these 3 worked examples.
CC12c3ccccc3C(OC=O)(c3ccccc31)C1(C)c3ccccc3C2(OC=O)c2ccccc21 | > 100 µM
O=[N+]([O-])c1cc2oc(CSc3ccccc3)nc2cc1Cl | > 100 µM
CNc1[nH]c(=S)nc2sc3c(c12)CCCC3 | > 75 µM

Which TGI value belongs to CC(C)C1CN(C(=O)OCc2ccccc2)C2N1C(=O)C2(C)OCc1ccccc1 (stereo not given) ?
> 100 µM

Queued: O=C1C/C(Br)=C\c2ccccc2-c2ccccc21
2.91 µM

Queued: O=C1c2cccc3cccc(c23)C(=O)N1CCCNCCCCNCCCNCCCN1C(=O)c2cccc3cccc(c23)C1=O
1.36 µM

Queued: CC1=C(C(=O)Nc2ccccc2)C(c2ccc(Cl)c(Cl)c2)C(C(=O)Nc2ccccc2)=C(C)N1
25.7 µM
